Can you tell me EC50 for the items I'm about to list?
- measured-on: human thrombopoietin receptor (c-mpl) (Homo sapiens)
- Construct: expressed in transfected cells
- Sequence (P40238 26-635): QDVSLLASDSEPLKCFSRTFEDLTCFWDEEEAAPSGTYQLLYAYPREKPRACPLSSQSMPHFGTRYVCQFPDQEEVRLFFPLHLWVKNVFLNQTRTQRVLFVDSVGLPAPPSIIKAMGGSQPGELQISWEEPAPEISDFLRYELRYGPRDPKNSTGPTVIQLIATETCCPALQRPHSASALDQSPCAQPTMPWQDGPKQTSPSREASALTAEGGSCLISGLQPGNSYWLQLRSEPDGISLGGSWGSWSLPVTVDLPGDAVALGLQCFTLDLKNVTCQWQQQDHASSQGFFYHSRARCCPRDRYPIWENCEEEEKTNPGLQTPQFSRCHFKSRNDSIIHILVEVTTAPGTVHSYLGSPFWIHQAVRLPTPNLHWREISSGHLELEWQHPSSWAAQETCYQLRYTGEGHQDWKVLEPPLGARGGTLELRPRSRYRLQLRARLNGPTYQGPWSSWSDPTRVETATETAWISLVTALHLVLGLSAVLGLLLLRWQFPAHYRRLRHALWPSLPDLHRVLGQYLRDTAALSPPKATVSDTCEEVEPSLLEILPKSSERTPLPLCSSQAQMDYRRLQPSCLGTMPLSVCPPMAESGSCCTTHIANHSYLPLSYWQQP
- assay-text: Stimulation of proliferation of thrombopoietin-dependent cell line UT7/EPO-mpl (WST-8)
- Format: cell-based
- protocol-conditions: human leukemic cell line UT-7/EPO-mpl, 4 days incubation, WST-8, relative to 10 ng/mL TPO; read-out: EC50 (concentration that yields a growth rate corresponding to 50% of the growth observed in the presence of 10 ng/mL TPO) (converted)
Give bare numbers, in nM.

1) CNC(=O)c1ccc(C(=O)NN/C(C)=C2\C(=O)N(c3ccc(C(C)(C)C)cc3)N=C2C)s1 :: 0.661
2) CNC(=O)c1ccc(C(=O)NN/C(C)=C2\C(=O)N(c3ccc(C)c(C)c3)N=C2C)s1 :: 5.17
3) CC1=NN(c2ccc(C(C)(C)C)cc2)C(=O)/C1=C(/C)NNC(=O)c1ccc(C(=O)NCc2ccncc2)s1 :: 0.528

Readout EC50 for CC1=NN(c2ccc(C(C)(C)C)cc2)C(=O)/C1=C(/C)NNC(=O)c1ccc(C(=O)NC(C)C)s1 , test system human thrombopoietin receptor (c-mpl) (Homo sapiens), was 1.16
